- EXPERIMENT: NCI Yeast Anticancer Drug Screen. Data for the mec2-1 strain (AID 157)
- CONDITION SET: S. cerevisiae mec2-1 strain, at 50.0 µM, active compounds read high
The panel holds about 79,000 compounds, 15% with a hit somewhere; the sample as a whole holds those more often.
REPORTED ENDPOINT: growth inhibition (%)

In [3]: df
Out[3]:
                                    molecule  units_label  value
 0              CCOc1ccccc1/C=C1\NC(=O)NC1=O            %    -35
 1               CSc1cnn(-c2ccccc2)[n+]1[O-]            %   -1.3
 2  Cc1nn(-c2ccc(Cl)cc2)c2c1c(=O)[nH]c1ccccc12            %  -3.45
 3  CCOC1(c2ccccc2)OC(=O)c2ccccc21 (configuration not stated)            %   3.15
 4        COC(=O)c1ccc(/C=C/c2cc(O)ccc2O)cc1            %   25.8
 5  CC(=O)OC1CC2C(C)(CCC3C2(C)CCC2(C)C4CC(C)(C)CCC4(C)CCC32C)C1C (configuration not stated)            %  -18.3
 6  Cc1ccc(S(=O)(=O)Nc2ccc(C(=O)NC(CCC(=O)O)C(=O)O)cc2)cc1 (configuration not stated)            %   2.95
 7                      CC(=O)c1ccc(O)c(C)c1            %   -8.9
 8  O=C(Nc1ccc2c(c1)C(O)c1ccccc1-2)C(F)(F)F (configuration not stated)            %   -4.3
 9                     Oc1ccccc1CN=Cc1ccccc1            %    4.1
10  CCOC(=O)c1ccc(CSc2ccc(N)cc2)c([N+](=O)[O-])c1            %   7.15
11           Cc1nc2cc(Nc3ccccc3C(=O)O)ccc2s1            %  -36.6

Origin of values: PubChem BioAssay (NCI)
